biological target: Neu5Ac(a2-3)Gal(b1-3)GalNAc(b1-4)[Neu5Ac(a2-3)]Gal(b1-4)Glc; assay: glycan array binding signal (z-score within array); higher = stronger binding; settings: glycan notation: IUPAC condensed, linker removed
The full list was thinned out, with the strongest signals kept by preference.
Give glycan array binding signal (z-score) for every item shown.
Reply: number alone, nothing else.

Qu. What value of glycan array binding signal (z-score) has been recorded for this entry: Strep tagII-anxA1 (Homo sapiens), P04083 (protein) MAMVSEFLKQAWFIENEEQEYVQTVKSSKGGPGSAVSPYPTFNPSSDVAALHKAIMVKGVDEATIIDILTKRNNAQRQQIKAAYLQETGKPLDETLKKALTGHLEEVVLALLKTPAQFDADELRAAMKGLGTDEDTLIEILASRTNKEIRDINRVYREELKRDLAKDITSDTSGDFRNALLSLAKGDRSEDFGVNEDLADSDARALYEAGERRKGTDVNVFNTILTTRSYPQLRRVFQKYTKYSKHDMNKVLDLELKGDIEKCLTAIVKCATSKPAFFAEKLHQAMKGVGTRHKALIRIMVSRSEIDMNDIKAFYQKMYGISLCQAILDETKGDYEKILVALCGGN
Ans. -0.502

Qu. What value of glycan array binding signal (z-score) has been recorded for this entry: SalT (Orysata sativa) (protein) MTLVKIGLWGGNGGSAQDISVPPKKLLGVTIYSSDAIRSIAFNYIGVDGQEYAIGPWGGGEGTSTEIKLGSSEHIKEISGTHGPVYDLADIVTYLKIVTSANNTYEAGVPNGKEFSIPLQDSGHVVGFFGRSGTLIDAIGIYVHPILEQKLISEEDLNSAVDHHHHHH
Ans. -0.304

Qu. What value of glycan array binding signal (z-score) has been recorded for this entry: rCnSL-proB (Clitocybe nebularis) (protein) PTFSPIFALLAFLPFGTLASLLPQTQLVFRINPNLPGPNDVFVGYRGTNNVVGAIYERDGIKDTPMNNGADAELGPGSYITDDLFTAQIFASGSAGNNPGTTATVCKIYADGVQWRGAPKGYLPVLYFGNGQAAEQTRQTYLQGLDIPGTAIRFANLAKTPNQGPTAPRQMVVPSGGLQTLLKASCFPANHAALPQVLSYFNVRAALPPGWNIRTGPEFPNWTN
Ans. -0.343

Qu. What value of glycan array binding signal (z-score) has been recorded for this entry: AT1G15820(NC) (Arabidopsis thaliana) (protein) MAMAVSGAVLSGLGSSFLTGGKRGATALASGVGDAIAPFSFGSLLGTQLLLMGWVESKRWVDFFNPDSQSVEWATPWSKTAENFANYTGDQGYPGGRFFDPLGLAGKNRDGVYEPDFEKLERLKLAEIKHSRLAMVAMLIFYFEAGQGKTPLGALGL
Ans. -0.581

Qu. What value of glycan array binding signal (z-score) has been recorded for this entry: Thrombomodulin (Mus musculus) (protein) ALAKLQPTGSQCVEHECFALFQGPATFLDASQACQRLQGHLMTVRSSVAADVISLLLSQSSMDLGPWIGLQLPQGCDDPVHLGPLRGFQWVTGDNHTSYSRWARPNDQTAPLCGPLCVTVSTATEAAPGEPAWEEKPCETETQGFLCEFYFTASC
Ans. -0.4

Qu. What value of glycan array binding signal (z-score) has been recorded for this entry: MFG-E8 (Homo sapiens), Q08431 (protein) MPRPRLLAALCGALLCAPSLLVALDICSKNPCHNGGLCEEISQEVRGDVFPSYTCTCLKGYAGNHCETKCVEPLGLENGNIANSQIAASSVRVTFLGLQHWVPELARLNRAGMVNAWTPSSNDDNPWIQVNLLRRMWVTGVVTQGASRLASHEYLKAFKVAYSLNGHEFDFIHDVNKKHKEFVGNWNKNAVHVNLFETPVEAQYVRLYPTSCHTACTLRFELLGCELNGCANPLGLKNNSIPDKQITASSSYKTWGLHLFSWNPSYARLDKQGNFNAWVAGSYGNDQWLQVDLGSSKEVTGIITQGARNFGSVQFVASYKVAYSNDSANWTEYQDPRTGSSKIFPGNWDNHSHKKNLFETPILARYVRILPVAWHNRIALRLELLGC
Ans. 1.61

Qu. What value of glycan array binding signal (z-score) has been recorded for this entry: Glycodelin A (Homo sapiens), P09466 (protein) MLCLLLTLGVALVCGVPAMDIPQTKQDLELPKLAGTWHSMAMATNNISLMATLKAPLRVHITSLLPTPEDNLEIVLHRWENNSCVEKKVLGEKTENPKKFKINYTVANEATLLDTDYDNFLFLCLQDTTTPIQSMMCQYLARVLVEDDEIMQGFIRAFRPLPRHLWYLLDLKQMEEPCRF
Ans. -0.406

Qu. What value of glycan array binding signal (z-score) has been recorded for this entry: NcCVNHO (Neurospora crassa), Q7S6U4 (protein) MSFHVTAEDARIEVRDNRTILFARLRREDGEWNDASYELDQIIGNNDGHFQWGGQNFTETAEDIRFHPKEGAAEQPILRARLRDCNGEFHDRDVNLTEIVENVNGEFQAKF
Ans. -0.244

Qu. What value of glycan array binding signal (z-score) has been recorded for this entry: DC-ASGPR S+GEE (Homo sapiens) (protein) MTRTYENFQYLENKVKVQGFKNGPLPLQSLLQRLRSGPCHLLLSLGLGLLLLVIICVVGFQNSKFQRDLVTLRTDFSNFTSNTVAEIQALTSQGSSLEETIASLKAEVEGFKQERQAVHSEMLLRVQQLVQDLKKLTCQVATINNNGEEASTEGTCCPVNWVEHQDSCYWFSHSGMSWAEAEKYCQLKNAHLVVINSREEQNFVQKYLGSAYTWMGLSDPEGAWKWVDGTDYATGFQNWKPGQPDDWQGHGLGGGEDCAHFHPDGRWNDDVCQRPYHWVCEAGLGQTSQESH
Ans. -0.329

Qu. What value of glycan array binding signal (z-score) has been recorded for this entry: Jacalin (Artocarpus integrifolia) (protein) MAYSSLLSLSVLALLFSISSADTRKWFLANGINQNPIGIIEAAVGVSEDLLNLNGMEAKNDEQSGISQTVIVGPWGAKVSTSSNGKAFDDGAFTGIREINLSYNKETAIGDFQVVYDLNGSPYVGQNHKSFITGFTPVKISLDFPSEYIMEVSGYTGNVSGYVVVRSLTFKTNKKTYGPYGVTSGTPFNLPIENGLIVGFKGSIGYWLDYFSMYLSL
Ans. -0.262

src = the supplement of paper PMC8728848
